Target: Adenosine kinase (Toxoplasma gondii)
Sequence (Q9TVW2 whole entry): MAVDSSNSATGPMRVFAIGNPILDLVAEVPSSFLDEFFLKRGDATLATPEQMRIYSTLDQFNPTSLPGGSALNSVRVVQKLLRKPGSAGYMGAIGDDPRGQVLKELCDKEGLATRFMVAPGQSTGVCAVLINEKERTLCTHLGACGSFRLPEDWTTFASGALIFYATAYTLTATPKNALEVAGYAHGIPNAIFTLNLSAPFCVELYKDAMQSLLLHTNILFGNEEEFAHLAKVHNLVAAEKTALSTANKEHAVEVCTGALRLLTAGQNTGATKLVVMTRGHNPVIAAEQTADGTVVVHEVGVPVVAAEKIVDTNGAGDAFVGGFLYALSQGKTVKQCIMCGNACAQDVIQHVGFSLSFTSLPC
Assay: Binding affinity to Toxoplasma gondii adenosine kinase after 20 mins by radioactivity method
measured.property: Ki (µM)
Give just the numeric value; µM need not be written.

Endpoint output: Ki of COC(=O)c1ccc(CSc2ncnc3c2ncn3[C@@H]2C[C@H](CO)[C@@H](O)[C@H]2O)cc1 . Value?
40.9

Endpoint output: Ki of OC[C@H]1C[C@@H](n2cnc3c(SCc4ccccc4)ncnc32)[C@H](O)[C@@H]1O . Value?
105

Endpoint output: Ki of Cc1cccc(CSc2ncnc3c2ncn3[C@@H]2C[C@H](CO)[C@@H](O)[C@H]2O)c1 . Value?
26.8

Endpoint output: Ki of COc1ccc(CSc2ncnc3c2ncn3[C@@H]2C[C@H](CO)[C@@H](O)[C@H]2O)cc1 . Value?
62

Endpoint output: Ki of N#Cc1ccc(CSc2ncnc3c2ncn3[C@@H]2C[C@H](CO)[C@@H](O)[C@H]2O)cc1 . Value?
129

Endpoint output: Ki of OC[C@H]1C[C@@H](n2cnc3c(SCc4c(F)cccc4Cl)ncnc32)[C@H](O)[C@@H]1O . Value?
31.3

Endpoint output: Ki of O=[N+]([O-])c1cccc(CSc2ncnc3c2ncn3[C@@H]2C[C@H](CO)[C@@H](O)[C@H]2O)c1 . Value?
26.6

Endpoint output: Ki of Cc1cc(C)c(CSc2ncnc3c2ncn3[C@@H]2C[C@H](CO)[C@@H](O)[C@H]2O)c(C)c1 . Value?
63.1

Endpoint output: Ki of OC[C@H]1C[C@@H](n2cnc3c(SCc4ccc(Br)cc4)ncnc32)[C@H](O)[C@@H]1O . Value?
21.1

Endpoint output: Ki of OC[C@H]1C[C@@H](n2cnc3c(SCc4ccc(OC(F)(F)F)cc4)ncnc32)[C@H](O)[C@@H]1O . Value?
65.5

Endpoint output: Ki of OC[C@H]1C[C@@H](n2cnc3c(SCc4ccccc4F)ncnc32)[C@H](O)[C@@H]1O . Value?
54.8

Endpoint output: Ki of Cc1ccccc1CSc1ncnc2c1ncn2[C@@H]1C[C@H](CO)[C@@H](O)[C@H]1O . Value?
24.9

Endpoint output: Ki of OC[C@H]1C[C@@H](n2cnc3c(SCc4ccc(Cl)cc4Cl)ncnc32)[C@H](O)[C@@H]1O . Value?
60.7

Endpoint output: Ki of Cc1ccc(CSc2ncnc3c2ncn3[C@@H]2C[C@H](CO)[C@@H](O)[C@H]2O)cc1 . Value?
7.5

Endpoint output: Ki of OC[C@H]1C[C@@H](n2cnc3c(SCc4cccc(C(F)(F)F)c4)ncnc32)[C@H](O)[C@@H]1O . Value?
22.2

Endpoint output: Ki of OC[C@H]1O[C@@H](n2cnc3c(SCc4ccccc4)ncnc32)[C@H](O)[C@@H]1O [6-BENZYLTHIOINOSINE] . Value?
14.3

Endpoint output: Ki of CS(=O)(=O)c1ccc(CSc2ncnc3c2ncn3[C@@H]2C[C@H](CO)[C@@H](O)[C@H]2O)cc1 . Value?
73.7

Endpoint output: Ki of OC[C@H]1C[C@@H](n2cnc3c(SCc4ccccc4Cl)ncnc32)[C@H](O)[C@@H]1O . Value?
24.2

Endpoint output: Ki of OC[C@H]1C[C@@H](n2cnc3c(SCc4ccc(F)cc4)ncnc32)[C@H](O)[C@@H]1O . Value?
31.9

Endpoint output: Ki of O=[N+]([O-])c1ccc(CSc2ncnc3c2ncn3[C@@H]2C[C@H](CO)[C@@H](O)[C@H]2O)cc1 . Value?
94.1

Endpoint output: Ki of OC[C@H]1C[C@@H](n2cnc3c(SCc4ccc(Cl)c(Cl)c4)ncnc32)[C@H](O)[C@@H]1O . Value?
16.8

Endpoint output: Ki of OC[C@H]1C[C@@H](n2cnc3c(SCc4ccc(Cl)cc4)ncnc32)[C@H](O)[C@@H]1O . Value?
15.6
